B1: library; a variant is named by its letters at N, in order (parent)
chain: GAGACCGCAACTGAAAAGTTGTGGNNNNNATAGTGAGTCGCTGCCTGCAAAGACACAACT

Variants of: B1
experimental_details: ligation selection enrichment (abundance after / before one-round selection) (fold); higher = more template-directed ligation activity
run_conditions: with T7Psub CACGGAUGCUAAUACGACUCACUAUA; MgCl2 25 mM; 42 °C; 4 h; pH 8.5
measurement_name: ligation selection enrichment
// return a plain number; no unit text

Use these answered entries as a reference point.
TATCG : 0.999
AGGTT : 0.245
CTCCC : 0.0937
CCAGC : 0.108

[Q] Give the reported ligation selection enrichment for this variant. CCCGT
[A] 0.207

[Q] Give the reported ligation selection enrichment for this variant. GGATC
[A] 0.188

[Q] Give the reported ligation selection enrichment for this variant. GGGCT
[A] 0.765
